Reported Classic ELISA (normalized to XAB1 Fab) by item:
- studySystem: T1, human IL-17A (construct not stated) (human, UniProt Q16552 24-155, limits assumed)
- T1 construct: also called huIL-17A; human IL-17A biotin
- T1 sequence: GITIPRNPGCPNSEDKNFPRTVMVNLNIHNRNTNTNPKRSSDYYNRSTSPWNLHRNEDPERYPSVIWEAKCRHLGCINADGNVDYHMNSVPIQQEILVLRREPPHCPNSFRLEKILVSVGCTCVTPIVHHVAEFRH
- assaySummary: ELISA on coated huIL-17A, crude Fab extract

The following binders have reported results that may help.
binder	Classic ELISA (normalized to XAB1 Fab)
MB458 (Fab, V domains shown, heavy chain C-terminal Flag tag) VH: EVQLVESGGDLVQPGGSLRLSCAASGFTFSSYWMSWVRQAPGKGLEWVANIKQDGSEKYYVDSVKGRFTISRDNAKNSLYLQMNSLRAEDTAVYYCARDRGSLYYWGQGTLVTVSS VL: AIQLTQSPSSLSASVGDRVTITCRPSQGIWYQLAWYQQKPGKAPKLLIYDASSLENGVPSRFSGSGSGTDFTLTISSLQPEDFATYYCQQFNSYPLTFGGGTKVEIK	2.7 ratio to XAB1 Fab
MB483 (Fab, V domains shown, heavy chain C-terminal Flag tag) VH: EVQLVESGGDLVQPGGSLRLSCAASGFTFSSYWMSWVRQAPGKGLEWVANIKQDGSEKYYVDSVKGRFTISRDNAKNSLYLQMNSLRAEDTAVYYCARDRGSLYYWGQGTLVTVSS VL: AIQLTQSPSSLSASVGDRVTITCRPSQGIFWTLAWYQQKPGKAPKLLIYDASSLENGVPSRFSGSGSGTDFTLTISSLQPEDFATYYCQQFNSYPLTFGGGTKVEIK	3.1 ratio to XAB1 Fab

Answer with the recorded Classic ELISA (normalized to XAB1 Fab) for the binder listed here: MB433 (Fab, V domains shown, heavy chain C-terminal Flag tag) VH: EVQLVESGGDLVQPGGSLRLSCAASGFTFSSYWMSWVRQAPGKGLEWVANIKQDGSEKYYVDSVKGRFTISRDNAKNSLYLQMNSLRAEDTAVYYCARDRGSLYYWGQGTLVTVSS VL: AIQLTQSPSSLSASVGDRVTITCRPSQGIYWGLAWYQQKPGKAPKLLIYDASSLENGVPSRFSGSGSGTDFTLTISSLQPEDFATYYCQQFNSYPLTFGGGTKVEIK
2.3 ratio to XAB1 Fab
